The values you see were collected from paper PMC6367500.

Experiment: Plasma and urine levels of GA metabolites in EHBRs orally treated with GA (LC-MS/MS)
Format: in vivo, Eisai hyperbilirubinuria rats (EHBRs)
Conditions: female, EHBR (Eisai hyperbilirubinuria rat), rat, plasma, oral, GA 200 mg/kg orally, read-out: plasma concentration at 12 h after treatment
quantity.measured: concentration at 12 h

compound	concentration at 12 h
CC1(C)[C@@H](OS(=O)(=O)O)CC[C@]2(C)[C@H]3C(=O)C=C4[C@@H]5C[C@@](C)(C(=O)O)C[C@H](O)[C@]5(C)CC[C@@]4(C)[C@]3(C)CC[C@@H]12 [compound 2, 22α-hydroxy-18β-glycyrrhetyl-3-O-sulfate]	~10 µM

Proceed to the following item.
q: Check the records and state concentration at 12 h for CC1(C)[C@@H](O)CC[C@]2(C)[C@H]3C(=O)C=C4[C@@H]5C[C@@](C)(C(=O)O)CC[C@]5(C)CC[C@@]4(C)[C@]3(C)CC[C@@H]12 [GA, glycyrrhetinic acid, reference compound]
a: ~10 µM

* * *

Experiment: Plasma and urine levels of GA metabolites in SD rats orally treated with GA (LC-MS/MS)
Format: in vivo
Conditions: GA 0.20 g/kg orally
quantity.measured: amount in accumulated urine collected 12 h after oral treatment

compound	value.measured
CC1(C)[C@@H](O[C@@H]2O[C@H](C(=O)O)[C@@H](O)[C@H](O)[C@H]2O)CC[C@]2(C)[C@H]3C(=O)C=C4[C@@H]5C[C@@](C)(C(=O)O)CC[C@]5(C)CC[C@@]4(C)[C@]3(C)CC[C@@H]12 [3MGA, 3-monoglucuronyl glycyrrhetinic acid, reference compound]	below detectable levels
CC1(C)[C@@H](OS(=O)(=O)O)CC[C@]2(C)[C@H]3C(=O)C=C4[C@@H]5C[C@@](C)(C(=O)O)CC[C@]5(C)CC[C@@]4(C)[C@]3(C)CC[C@@H]12 [compound 3, 18β-glycyrrhetyl-3-O-sulfate]	0.03 nmol
CC1(C)[C@@H](OS(=O)(=O)O)CC[C@]2(C)[C@H]3C(=O)C=C4[C@@H]5C[C@@](C)(C(=O)O)C[C@H](O)[C@]5(C)CC[C@@]4(C)[C@]3(C)CC[C@@H]12 [compound 2, 22α-hydroxy-18β-glycyrrhetyl-3-O-sulfate]	below detectable levels
CC1(C)[C@@H](OS(=O)(=O)O)CC[C@]2(C)[C@H]3C(=O)C=C4[C@@H]5C[C@@](C)(C(=O)O[C@@H]6O[C@H](C(=O)O)[C@@H](O)[C@H](O)[C@H]6O)C[C@H](O)[C@]5(C)CC[C@@]4(C)[C@]3(C)CC[C@@H]12	below detectable levels

* * *

Experiment: Binding to serum albumin by ultrafiltration of pooled EHBR plasma
Settings: female, EHBR (Eisai hyperbilirubinuria rat), plasma ultrafiltrate, oral, 200 mg/kg
quantity.measured: concentration at 12 h

# example entries with known answers
compound	concentration at 12 h
CC1(C)[C@@H](O)CC[C@]2(C)[C@H]3C(=O)C=C4[C@@H]5C[C@@](C)(C(=O)O)CC[C@]5(C)CC[C@@]4(C)[C@]3(C)CC[C@@H]12 [GA, glycyrrhetinic acid, reference compound]	< 16 nM
CC1(C)[C@@H](OS(=O)(=O)O)CC[C@]2(C)[C@H]3C(=O)C=C4[C@@H]5C[C@@](C)(C(=O)O)C[C@H](O)[C@]5(C)CC[C@@]4(C)[C@]3(C)CC[C@@H]12 [compound 2, 22α-hydroxy-18β-glycyrrhetyl-3-O-sulfate]	< 3.2 nM

Now for another entry.
q: Quickly give me recorded concentration at 12 h for CC1(C)[C@@H](OS(=O)(=O)O)CC[C@]2(C)[C@H]3C(=O)C=C4[C@@H]5C[C@@](C)(C(=O)O)CC[C@]5(C)CC[C@@]4(C)[C@]3(C)CC[C@@H]12 [compound 3, 18β-glycyrrhetyl-3-O-sulfate]
a: < 3.2 nM

* * *

Experiment: Concentrations of GL metabolites in plasma of a patient with pseudoaldosteronism (LC-MS/MS)
Format: in vivo, human
Details: female, human, plasma, oral; patient with licorice-induced pseudoaldosteronism, day 0
Description: The patient was a person who had taken a Kampo formula containing licorice for 3 years (1.5 g of licorice for 1 year and 2 months, and 3 g for 1 year and 10 months). […] In the plasma collected on day 0, we detected compound 3 at 8.6 µM, GA at 1.3 µM, and 2 at 87 nM, while 1, GL and 3MGA were not detected. […] 2, 1, GL, and 3MGA were not detected. […] On day 14, the plasma potassium level was 3.4 mEq/l, and the concentration of 3 was 57 nM; GA was not detected. […]
Hi there, I'd appreciate the recorded concentration at 0 day for every entry that follows.
Give bare numbers, in nM.

Please review the following examples before continuing.
compound	concentration at 0 day [nM]
CC1(C)[C@@H](OS(=O)(=O)O)CC[C@]2(C)[C@H]3C(=O)C=C4[C@@H]5C[C@@](C)(C(=O)O)C[C@H](O)[C@]5(C)CC[C@@]4(C)[C@]3(C)CC[C@@H]12 [compound 2, 22α-hydroxy-18β-glycyrrhetyl-3-O-sulfate]	87
CC1(C)[C@@H](OS(=O)(=O)O)CC[C@]2(C)[C@H]3C(=O)C=C4[C@@H]5C[C@@](C)(C(=O)O)CC[C@]5(C)CC[C@@]4(C)[C@]3(C)CC[C@@H]12 [compound 3, 18β-glycyrrhetyl-3-O-sulfate]	8600

// next entry
q: Quote concentration at 0 day reported for CC1(C)[C@@H](O)CC[C@]2(C)[C@H]3C(=O)C=C4[C@@H]5C[C@@](C)(C(=O)O)CC[C@]5(C)CC[C@@]4(C)[C@]3(C)CC[C@@H]12 [GA, glycyrrhetinic acid, reference compound] please.
a: 1300

* * *

Assay: Plasma and urine levels of GA metabolites in EHBRs orally treated with GA (LC-MS/MS)
Type: in vivo, Eisai hyperbilirubinuria rats (EHBRs)
Conditions: female, EHBR (Eisai hyperbilirubinuria rat), rat, plasma, oral, GA 200 mg/kg orally, read-out: plasma concentration at 12 h after treatment
Protocol: Female SD rats or EHBRs (9-week-old) were anesthetized by an intraperitoneal (i.p.) injection of urethane (1 g/kg) and their jugular veins were exposed. […] Feces were homogenized in phosphate-buffered saline (PBS; 0.15 M, pH 7.2), centrifuged (1.2 × 10^4 g, 10 min), and the supernatants were collected. After 1 week as a washout period, female SD rats were anesthetized by an i.p. injection of urethane (1 g/kg) and their biliary tract was cannulated. […]
quantity.measured: concentration at 12 h

Give concentration at 12 h for each listed item.
1. CC1(C)[C@@H](O[C@@H]2O[C@H](C(=O)O)[C@@H](O)[C@H](O)[C@H]2O)CC[C@]2(C)[C@H]3C(=O)C=C4[C@@H]5C[C@@](C)(C(=O)O)CC[C@]5(C)CC[C@@]4(C)[C@]3(C)CC[C@@H]12 [3MGA, 3-monoglucuronyl glycyrrhetinic acid, reference compound]
2. CC1(C)[C@@H](OS(=O)(=O)O)CC[C@]2(C)[C@H]3C(=O)C=C4[C@@H]5C[C@@](C)(C(=O)O[C@@H]6O[C@H](C(=O)O)[C@@H](O)[C@H](O)[C@H]6O)C[C@H](O)[C@]5(C)CC[C@@]4(C)[C@]3(C)CC[C@@H]12
3. CC1(C)[C@@H](OS(=O)(=O)O)CC[C@]2(C)[C@H]3C(=O)C=C4[C@@H]5C[C@@](C)(C(=O)O)CC[C@]5(C)CC[C@@]4(C)[C@]3(C)CC[C@@H]12 [compound 3, 18β-glycyrrhetyl-3-O-sulfate]

a:
0.09 µM
~10 µM
~10 µM

* * *

Test: Concentrations of GL metabolites in plasma of a patient with pseudoaldosteronism (LC-MS/MS)
Type: in vivo, human
Conditions: human, plasma, oral; patient, day 13
quantity.measured: concentration at 13 day (nM)
Answers are plain numbers, in nM.

compound	concentration at 13 day, nM
CC1(C)[C@@H](O)CC[C@]2(C)[C@H]3C(=O)C=C4[C@@H]5C[C@@](C)(C(=O)O)CC[C@]5(C)CC[C@@]4(C)[C@]3(C)CC[C@@H]12 [GA, glycyrrhetinic acid, reference compound]	11

The record that follows has no concentration at 13 day shown yet.
q: Fill in reported concentration at 13 day for this entry: CC1(C)[C@@H](OS(=O)(=O)O)CC[C@]2(C)[C@H]3C(=O)C=C4[C@@H]5C[C@@](C)(C(=O)O)CC[C@]5(C)CC[C@@]4(C)[C@]3(C)CC[C@@H]12 [compound 3, 18β-glycyrrhetyl-3-O-sulfate]
a: 61

* * *

Tested on: anti-3MGA-mAb
Assay: Dot-blot analysis using anti-3MGA-mAb
Type: binding
Details: 1 µg spotted on PES membrane, imaging analysis
quantity.measured: area of positive staining in dot-blot (pixels)
Give bare numbers, in pixels.

Recorded area of positive staining in dot-blot, per entry:
compound	target.desc	area of positive staining in dot-blot, pixels
CC1(C)[C@@H](OS(=O)(=O)O)CC[C@]2(C)[C@H]3C(=O)C=C4[C@@H]5C[C@@](C)(C(=O)O)CC[C@]5(C)CC[C@@]4(C)[C@]3(C)CC[C@@H]12 [compound 3, 18β-glycyrrhetyl-3-O-sulfate]	anti-3MGA-mAb	146
CC1(C)[C@@H](OS(=O)(=O)O)CC[C@]2(C)[C@H]3C(=O)C=C4[C@@H]5C[C@@](C)(C(=O)O[C@@H]6O[C@H](C(=O)O)[C@@H](O)[C@H](O)[C@H]6O)C[C@H](O)[C@]5(C)CC[C@@]4(C)[C@]3(C)CC[C@@H]12	anti-3MGA-mAb	606
CC1(C)[C@@H](OS(=O)(=O)O)CC[C@]2(C)[C@H]3C(=O)C=C4[C@@H]5C[C@@](C)(C(=O)O)C[C@H](O)[C@]5(C)CC[C@@]4(C)[C@]3(C)CC[C@@H]12 [compound 2, 22α-hydroxy-18β-glycyrrhetyl-3-O-sulfate]	anti-3MGA-mAb	79
CC1(C)[C@@H](O)CC[C@]2(C)[C@H]3C(=O)C=C4[C@@H]5C[C@@](C)(C(=O)O)CC[C@]5(C)CC[C@@]4(C)[C@]3(C)CC[C@@H]12 [GA, glycyrrhetinic acid, reference compound]	anti-3MGA-mAb	97

Proceeding to the next compound to report its area of positive staining in dot-blot.
q: Fill in area of positive staining in dot-blot for record CC1(C)[C@@H](O[C@@H]2O[C@H](C(=O)O)[C@@H](O)[C@H](O)[C@H]2O)CC[C@]2(C)[C@H]3C(=O)C=C4[C@@H]5C[C@@](C)(C(=O)O)CC[C@]5(C)CC[C@@]4(C)[C@]3(C)CC[C@@H]12 [3MGA, 3-monoglucuronyl glycyrrhetinic acid, reference compound]
a: 3395
